IC50 values for Coagulation factor X (Homo sapiens, UniProt P00742), compiled from several publications.

Below, each entry is followed by its recorded IC50 result.
>>> result_value("O=C(NCc1ccn[nH]1)c1nn(-c2cccc(Cl)c2)c2c1CCN(c1ccc3c(c1)CN(CCO)CC3)C2=O")
"10 to 40 µM"
>>> result_value("CC(=O)N1CC2CC1CC2COc1cc(CNc2ccc3c(N)nccc3c2)ccn1 (stereo not shown)")
"0.3 to 1 µM"
>>> result_value("Nc1nccc2c(NCc3ccc(CN4CCOCC4)cc3F)cccc12")
"> 40 µM"
>>> result_value("Cc1ccncc1CNC(=O)c1nn(-c2cccc(Cl)c2)c2c1CCN(c1ccc3c(c1)CN(C)CC3)C2=O")
"3 to 10 µM"
>>> result_value("Cc1cc(CNC(=O)c2nn(-c3cccc(Cl)c3)c3c2CCN(c2ccc4c(c2)C(=O)N(C)CC(=O)N4C)C3=O)n[nH]1")
"10 to 40 µM"

Provide measured IC50 value, entry: Nc1nccc2c(NC[C@H]3C[C@H](COc4ccn5ccnc5c4)C3)cccc12
> 40 µM
